These entries and their values trace back to ChEMBL document CHEMBL1961873.

target: Homeodomain-interacting protein kinase 1 (Homo sapiens) (UniProt Q86Z02); conditions: at 0.1 µM;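 further: each value is a mean percent inhibition of HIPK1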
Sequence (Q86Z02 whole entry, looked up): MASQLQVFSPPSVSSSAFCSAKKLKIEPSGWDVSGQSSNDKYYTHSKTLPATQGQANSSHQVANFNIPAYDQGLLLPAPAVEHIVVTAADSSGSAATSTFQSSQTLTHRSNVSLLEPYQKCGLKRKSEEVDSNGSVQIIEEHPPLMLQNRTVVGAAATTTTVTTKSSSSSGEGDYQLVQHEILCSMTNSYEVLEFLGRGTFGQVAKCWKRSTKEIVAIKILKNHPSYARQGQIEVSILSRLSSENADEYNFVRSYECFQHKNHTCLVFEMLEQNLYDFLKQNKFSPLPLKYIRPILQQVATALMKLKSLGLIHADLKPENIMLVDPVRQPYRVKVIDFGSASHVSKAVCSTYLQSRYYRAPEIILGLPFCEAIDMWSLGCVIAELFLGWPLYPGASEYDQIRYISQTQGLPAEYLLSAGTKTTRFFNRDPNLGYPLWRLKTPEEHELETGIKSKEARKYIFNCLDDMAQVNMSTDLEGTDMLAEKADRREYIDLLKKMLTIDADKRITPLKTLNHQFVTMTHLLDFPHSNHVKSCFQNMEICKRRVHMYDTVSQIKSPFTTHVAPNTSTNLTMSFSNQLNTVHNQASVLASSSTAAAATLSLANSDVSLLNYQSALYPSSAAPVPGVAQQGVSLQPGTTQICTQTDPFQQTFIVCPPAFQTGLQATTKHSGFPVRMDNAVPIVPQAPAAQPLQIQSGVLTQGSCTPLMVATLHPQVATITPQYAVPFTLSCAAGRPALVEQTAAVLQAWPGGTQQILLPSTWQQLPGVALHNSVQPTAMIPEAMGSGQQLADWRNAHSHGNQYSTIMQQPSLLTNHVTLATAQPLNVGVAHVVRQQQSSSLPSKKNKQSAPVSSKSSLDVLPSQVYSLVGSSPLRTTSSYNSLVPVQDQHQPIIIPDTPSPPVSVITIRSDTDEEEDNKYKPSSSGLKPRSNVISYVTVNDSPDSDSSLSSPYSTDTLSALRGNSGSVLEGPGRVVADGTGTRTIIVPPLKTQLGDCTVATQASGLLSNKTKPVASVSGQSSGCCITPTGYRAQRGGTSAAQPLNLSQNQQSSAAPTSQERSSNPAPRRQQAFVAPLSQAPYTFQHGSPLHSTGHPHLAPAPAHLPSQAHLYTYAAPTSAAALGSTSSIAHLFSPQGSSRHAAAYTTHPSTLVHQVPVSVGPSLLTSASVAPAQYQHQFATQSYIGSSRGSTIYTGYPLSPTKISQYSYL
Measured inhibition accompanies every entry in the list below.
Your answer should be a plain number; it is taken to be in %.

>>> print(df.to_string())
                             chemicalsmiles  readingunit  recordedmeasurement
0  COc1cccc(COc2cc(-n3cnc4ccccc43)sc2C(N)=O)c1            %                -6.56
1  NS(=O)(=O)c1ccc(N/C=C2\C(=O)Nc3ccc4ncsc4c32)cc1            %                 3.83

Req: So what does the record say about inhibition for `NC(=O)c1sc(-n2cnc3cc(C(F)(F)F)ccc32)cc1OCc1ccccc1Br` ?
Resp: -3.51

Req: inhibition lookup needed for `COc1cc(C=NNc2ncnc3c2cnn3Cc2ccccc2)ccc1O` , thanks.
Resp: -2.83

Req: Value lookup for inhibition; key = `Nc1nonc1-c1nc2cnccc2n1C1CCCCC1`
Resp: -0.6

Req: Consider the compound shown here: `CCn1c(-c2nonc2N)nc2c(C#CC(C)(C)O)nc(O[C@@H](CN)c3ccccc3)cc21` What is its recorded inhibition?
Resp: 10.4

Req: Record request: inhibition value, item `NS(=O)(=O)c1ccc(-c2ccc3c(NC(=O)C4CC4)n[nH]c3c2)cc1`
Resp: 2.52

Req: // query inhibition value for entry `CCn1c(-c2nonc2N)nc2c(C#CCN)ncc(OCCCN)c21`
Resp: 3.64

Req: For the compound `COc1cc2c(cc1Nc1nc(Nc3ccsc3C(N)=O)c3cc[nH]c3n1)N(C(=O)CN(C)C)CCC2` , what inhibition is on record?
Resp: -2.33

###

// reported inhibition per item
biological target: Glycogen synthase kinase-3 beta (Homo sapiens) (UniProt P49841); settings: at 0.1 µM;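 further: values are mean percent inhibition of GSK3B activity, from the GSK Published Kinase Inhibitor Set (PKIS) screening dataset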
Sequence (P49841 whole entry, looked up): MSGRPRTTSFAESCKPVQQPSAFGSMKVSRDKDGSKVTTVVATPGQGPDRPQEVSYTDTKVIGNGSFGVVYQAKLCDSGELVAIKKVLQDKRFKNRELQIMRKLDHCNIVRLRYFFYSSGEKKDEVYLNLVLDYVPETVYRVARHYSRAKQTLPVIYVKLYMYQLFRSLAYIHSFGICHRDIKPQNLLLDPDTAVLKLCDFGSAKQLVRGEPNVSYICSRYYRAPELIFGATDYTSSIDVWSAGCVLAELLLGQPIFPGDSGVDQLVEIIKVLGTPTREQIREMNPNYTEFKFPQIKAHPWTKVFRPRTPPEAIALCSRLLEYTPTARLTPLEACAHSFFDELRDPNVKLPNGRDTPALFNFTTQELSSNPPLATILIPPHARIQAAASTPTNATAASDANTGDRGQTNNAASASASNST
Give the value in % but do not write % after it.

# count of solved cases: 3
>>> df
                             chemicalsmiles  readoutkind  recordedmeasurement
0  CCn1c(-c2nonc2N)nc2c(C#CCN)ncc(OCCCN)c21   inhibition                 3.41
1  NS(=O)(=O)c1ccc(-c2ccc3c(NC(=O)C4CC4)n[nH]c3c2)cc1   inhibition                 4.15
2            Nc1nonc1-c1nc2cnccc2n1C1CCCCC1   inhibition                 62.5

Req: What value of inhibition has been reported for the following molecule? `COc1cc2c(cc1Nc1nc(Nc3ccsc3C(N)=O)c3cc[nH]c3n1)N(C(=O)CN(C)C)CCC2`
Resp: 1.05

Req: So what's the measured inhibition for this one? `Fc1ccc(-c2ncn(C3CCNCC3)c2-c2ccnc(Oc3ccccc3)n2)cc1`
Resp: -2.46

###

molecular target: MAP kinase-activated protein kinase 3 (Homo sapiens) (UniProt Q16644); settings: at 1 µM
Sequence (Q16644 whole entry, looked up): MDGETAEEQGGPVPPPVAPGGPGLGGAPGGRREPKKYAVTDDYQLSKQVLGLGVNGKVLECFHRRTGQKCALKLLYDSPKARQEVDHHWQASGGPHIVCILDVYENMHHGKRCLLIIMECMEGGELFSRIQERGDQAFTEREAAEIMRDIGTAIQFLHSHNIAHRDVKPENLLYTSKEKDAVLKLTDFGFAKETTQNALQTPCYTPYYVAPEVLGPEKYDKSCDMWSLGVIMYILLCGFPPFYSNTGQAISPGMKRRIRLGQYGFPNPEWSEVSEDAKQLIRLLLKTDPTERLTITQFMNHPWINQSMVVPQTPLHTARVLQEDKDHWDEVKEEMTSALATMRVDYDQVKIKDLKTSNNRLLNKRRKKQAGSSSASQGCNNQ
Description: GSK_PKIS: MAPKAPK3 mean inhibition at 1 uM [Nanosyn]
inhibition for assorted compounds
State the answer as a number, implicitly in %.

In [3]: df
Out[3]:
                             chemicalsmiles  readingunit  recordedmeasurement
0  NS(=O)(=O)c1ccc(N/C=C2\C(=O)Nc3ccc4ncsc4c32)cc1            %                 10.4
1   COc1cc(C=NNc2ncnc3c2cnn3Cc2ccccc2)ccc1O            %                -1.92
2  COc1cc2c(cc1Nc1nc(Nc3ccsc3C(N)=O)c3cc[nH]c3n1)N(C(=O)CN(C)C)CCC2            %                 6.01
3  COc1cccc(-n2ncc3c(N/N=C/c4ccncc4)ncnc32)c1            %                 4.56
4  Fc1ccc(-c2ncn(C3CCNCC3)c2-c2ccnc(Oc3ccccc3)n2)cc1            %                 33.4

Req: Return reported inhibition; argument: `NC(=O)c1sc(-n2cnc3cc(C(F)(F)F)ccc32)cc1OCc1ccccc1Br`
Resp: -0.9

Req: Which inhibition value belongs to `CCn1c(-c2nonc2N)nc2c(C#CC(C)(C)O)ncc(OCC3CCNCC3)c21` ?
Resp: 1.31

Req: Quick check: inhibition of `Nc1nonc1-c1nc2cnccc2n1C1CCCCC1` ?
Resp: -2.76

Req: Given the compound `NS(=O)(=O)c1ccc(-c2ccc3c(NC(=O)C4CC4)n[nH]c3c2)cc1` , what is its reported inhibition?
Resp: 2.69

Req: Which inhibition reading was recorded for the compound `Cc1cc(-c2ccco2)cc(C)c1/C=C/c1cncc(-c2nn[nH]n2)c1` ?
Resp: 1.25

Req: Quick one: inhibition of `CCn1c(-c2nonc2N)nc2c(C#CCN)ncc(OCCCN)c21` ?
Resp: -0.66
